test system: HELA cells (Acc57); assay: Cytotoxicity assay (MTT reduction), HELA cells; format: cell-based
Where a SMILES comes first, the peptide text is derived from it.
PROPERTY: Cytotoxicity LC50/GI50 Hela cells (µM)
Give a bare numeral; the unit µM is implied.

Request: Endpoint output: Cytotoxicity LC50/GI50 Hela cells of CC[C@H](C)[C@@H]1NC(=O)[C@@H]2CCCN2C(=O)[C@@H]2CCCN2C(=O)[C@H](CC(=O)O)NC(=O)[C@H](CO)NC(=O)[C@H](CCCCN)NC(=O)[C@H]([C@@H](C)O)NC(=O)[C@H](CCC(=O)O)NC(=O)[C@H](CCCNC(=N)N)NC(=O)[C@@H]2CCCN2C(=O)[C@H]2CCCN2C(=O)[C@H](Cc2ccccc2)NC(=O)[C@H](CCCNC(=N)N)NC1=O [Ex. 7] (HELM PEPTIDE1{R.E.T.K.S.D.P.P.I.R.F.[dP].P}$PEPTIDE1,PEPTIDE1,1:R1-13:R2$$$V2.0) . Value?
Response: 100

Ref: patent US8658604B2
